FYI, the data here is from patent US12599672B2.

biological target: KRAS G12D (Homo sapiens, UniProt P01116, G12D); construct: AsPc-1-KRAS (G12D)-HiBit-KI cell (Pharmaron); host or cells: AsPc-1-KRAS (G12D)-HiBit-KI cells (HiBiT knock-in at the endogenous KRAS locus); test: KRAS G12D HiBit assay; format: cell-based; details: AsPc-1-KRAS (G12D)-HiBit-KI cell, compound treatment for 24 hours, absolute DC50; class symbols
Sequence (P01116 1-188 isoform P01116-2 G12D): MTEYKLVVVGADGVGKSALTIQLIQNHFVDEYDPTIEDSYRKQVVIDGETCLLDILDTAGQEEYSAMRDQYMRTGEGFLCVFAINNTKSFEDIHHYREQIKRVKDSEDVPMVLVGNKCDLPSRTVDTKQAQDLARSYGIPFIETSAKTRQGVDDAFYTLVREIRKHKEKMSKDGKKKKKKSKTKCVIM
Entries and their measured DC50 follow.

COMPOUND	TGT	DC50
C#Cc1c(F)ccc2cc(O)cc(-c3ncc4c(N5CCC[C@@](C)(O)C5)nc(OCC5(CN6CCC7(CC6)CC(N6CCC(c8cccc9c(C%10CCC(=O)NC%10=O)nn(C)c89)CC6)C7)CC5)nc4c3F)c12 (stereo partly drawn)	KRAS G12D (Homo sapiens, UniProt P01116, G12D)	< 100 nM

Q: Report value only: DC50, KRAS G12D (Homo sapiens, UniProt P01116, G12D), C#Cc1c(F)ccc2cccc(-c3ncc4c(N5CCC[C@@](C)(O)C5)nc(OCC5(CN6CCC7(CC6)CC(N6CCC(c8ccc9c(c8)n(C)c(=O)n9C8CCC(=O)NC8=O)CC6)C7)CC5)nc4c3F)c12 (stereo partly drawn)
Result: > 300 nM

Q: Given CCc1c(F)ccc2cc(O)cc(-c3ncc4c(N5CCC[C@@](C)(O)C5)nc(OC[C@]56CCCN5[C@H](COC(=O)N5CCC(COc7ccc8c(c7)n(C)c(=O)n8C7CCC(=O)NC7=O)CC5)CC6)nc4c3F)c12 (stereo partly drawn) , report its DC50 on KRAS G12D (Homo sapiens, UniProt P01116, G12D).
Result: < 100 nM

Q: // fetch DC50; item: CCc1c(F)ccc2cc(O)cc(-c3ncc4c(N5CCC[C@@](C)(O)C5)nc(OC[C@@]56CCCN5[C@H](COC(=O)N5CCC7(CC5)CCN(C5CCN(c8ccc9c(c8)n(C)c(=O)n9C8CCC(=O)NC8=O)CC5)C7)CC6)nc4c3F)c12 (stereo partly drawn) ; system: KRAS G12D (Homo sapiens, UniProt P01116, G12D)
Result: < 100 nM

Q: Enter measured DC50, system KRAS G12D (Homo sapiens, UniProt P01116, G12D), for the compound shown: CCc1c(F)ccc2cc(O)cc(-c3ncc4c(N5CCC[C@@](C)(O)C5)nc(OC[C@@]56CCCN5[C@H](COC(=O)N5CCC(CN7CCC(c8ccc9c(C%10CCC(=O)NC%10=O)nn(C)c9c8F)CC7)CC5)CC6)nc4c3F)c12 (stereo partly drawn)
Result: < 100 nM

Q: Answer with DC50 of C#Cc1c(F)ccc2cc(O)cc(-c3ncc4c(N5CCCC(F)(F)C5)nc(OC[C@@]56CCCN5[C@H](COC(=O)N5CCC(CN7CCC(c8ccc9c(c8)n(C)c(=O)n9C8CCC(=O)NC8=O)CC7)CC5)CC6)nc4c3F)c12 (stereo partly drawn) measured for KRAS G12D (Homo sapiens, UniProt P01116, G12D).
Result: < 100 nM
